# System: 233499-124-R-J3-PDC spheroids with HUVEC/MSC, viability;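 also: spheroids exposed to agents for seven days before readout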
# test: Anticancer human tumor 233499-124-R-J3-PDC patient-derived colon adenocarcinoma cell line growth inhibition [PI3K]
# experimental.parameters: second compound 10 µM; first compound 1 µM; hits give low values
Output rule met for records whose viability, T/C is lower than 70%, rule not met for records at or above 70%.

Problem: Say whether its viability, T/C is strictly beneath 70%. Entry: Cn1ncc(Cl)c1-c1cc(C(=O)NC(CN)Cc2cccc(F)c2)sc1Cl (stereo unspecified) + Cc1nc(NC(=O)N2CCCC2C(N)=O)sc1-c1ccnc(C(C)(C)C(F)(F)F)c1
Result: rule met

Problem: Say whether its viability, T/C is strictly beneath 70%. Entry: CNC(=O)c1ccc(N2C(=S)N(c3ccc(C#N)c(C(F)(F)F)c3)C(=O)C2(C)C)cc1F + Cc1nc(NC(=O)N2CCCC2C(N)=O)sc1-c1ccnc(C(C)(C)C(F)(F)F)c1
Result: rule met

Problem: Say whether its viability, T/C is strictly beneath 70%. Entry: C=CC(=O)N1CCN(c2nc(=O)n(-c3c(C)ccnc3C(C)C)c3nc(-c4c(O)cccc4F)c(F)cc23)C(C)C1 (stereo unspecified) + CC(Nc1ncnc2nc[nH]c12)c1cc2cccc(Cl)c2c(=O)n1-c1ccccc1
Result: rule not met

Problem: Say whether its viability, T/C is strictly beneath 70%. Entry: CC1(C)CCC(CN2CCN(c3ccc(C(=O)NS(=O)(=O)c4ccc(NCC5CCOCC5)c([N+](=O)[O-])c4)c(Oc4cnc5[nH]ccc5c4)c3)CC2)=C(c2ccc(Cl)cc2)C1 + Cc1nc(NC(=O)N2CCCC2C(N)=O)sc1-c1ccnc(C(C)(C)C(F)(F)F)c1
Result: rule met

Problem: Say whether its viability, T/C is strictly beneath 70%. Entry: Cn1ncc(Cl)c1-c1cc(C(=O)NC(CN)Cc2cccc(F)c2)sc1Cl (stereo unspecified) + CC(Nc1ncnc2nc[nH]c12)c1cc2cccc(Cl)c2c(=O)n1-c1ccccc1
Result: rule met

Problem: Say whether its viability, T/C is strictly beneath 70%. Entry: Cn1nccc1Nc1nccc(-c2ccn(C(CO)c3ccc(Cl)c(F)c3)c(=O)c2)n1 (stereo unspecified) + Cc1nc(NC(=O)N2CCCC2C(N)=O)sc1-c1ccnc(C(C)(C)C(F)(F)F)c1
Result: rule met

Problem: Say whether its viability, T/C is strictly beneath 70%. Entry: CCCS(=O)(=O)Nc1ccc(F)c(C(=O)c2c[nH]c3ncc(-c4ccc(Cl)cc4)cc23)c1F + CC(Nc1ncnc2nc[nH]c12)c1cc2cccc(Cl)c2c(=O)n1-c1ccccc1
Result: rule not met

Problem: Say whether its viability, T/C is strictly beneath 70%. Entry: C[C@@H](NC(=O)c1ncnc(N)c1Cl)c1ncc(C(=O)Nc2cc(C(F)(F)F)c(Cl)cn2)s1 + Cc1nc(NC(=O)N2CCCC2C(N)=O)sc1-c1ccnc(C(C)(C)C(F)(F)F)c1
Result: rule met

Problem: Say whether its viability, T/C is strictly beneath 70%. Entry: CCN1CCN(Cc2ccc(Nc3ncc(F)c(-c4cc(F)c5nc(C)n(C(C)C)c5c4)n3)nc2)CC1 + CC(Nc1ncnc2nc[nH]c12)c1cc2cccc(Cl)c2c(=O)n1-c1ccccc1
Result: rule met
